# Test system: transient receptor potential cation channel C4 beta (TRPC4), mouse
# Assay Details: TRPC4 cation channel opening, second retest – cell-based, second round, Fluo4, HEK293 TRPC4beta/mu-opioid, 1 µM, confirmation (AID 2461)
# Condition Label: Fluo4 calcium fluorescence, at 1 µM
Active and inactive are the calls of the source.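 The calls were made as follows: active = primary screen active and over 50% activation in each of two duplicate runs; inactive = the rest.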
Would you mind answering with one of these outcomes? active, inactive

Query string: What was the test verdict on Cc1oc(-c2cccc(F)c2)nc1CN(Cc1ccccc1)C[C@@H]1CCC(=O)N1 ?
Result string: inactive

Query string: Please answer likewise for Cc1cc(OCc2cc(C(=O)NCC3(C)COC3)no2)cc(C)c1Cl
Result string: inactive

Query string: Please answer likewise for CC(C)(C)Cc1nc2ccccc2n1CCc1ccccc1
Result string: inactive

Query string: Please answer likewise for Cc1cccc(Cn2c(C(C)(C)C)cc3cccnc32)c1
Result string: inactive

Query string: Please answer likewise for COc1cc(CNC2CCCCCCC2)cc(Br)c1OCC#N
Result string: inactive

Query string: Please answer likewise for c1ccn2cc(C34CC5CC(CC(C5)C3)C4)nc2c1
Result string: inactive

Query string: Please answer likewise for CC(C)Sc1nc2sc3c(c2c2nnc(SCC(=O)NCc4ccco4)n12)CCCC3
Result string: inactive

Query string: Please answer likewise for CCCCOc1ccc(Nc2cc(Cl)ccc2C(=O)O)cn1
Result string: inactive

Query string: Please answer likewise for COC(=O)[C@@]12CCCCN1[C@H](c1ccc(-c3cccc(Cl)c3)c(OC)c1)[C@H]1C(=O)N(C)C(=O)[C@H]12
Result string: inactive

Query string: Please answer likewise for CCCCOc1ccc(CSCCN=C(N)N)cc1
Result string: inactive

Query string: Please answer likewise for O=C(Cc1cccs1)Nc1nc(-c2ccc(F)cc2F)cs1
Result string: inactive

Query string: Please answer likewise for COc1ccc(C(=O)/C=C/C(=O)N(CC(=O)NC2CCCCC2)CC2CCCO2)c(O)c1 (configuration not stated)
Result string: inactive

Query string: Please answer likewise for CN(C(=O)CSc1nc(-c2ccc(C(C)(C)C)cc2)c(C#N)c(=O)[nH]1)C1CCCCC1
Result string: inactive

Query string: Please answer likewise for Cc1ccc(-c2csc(NC(=O)C3CC=CCC3C(=O)O)c2C(=O)OC(C)C)cc1 (configuration not stated)
Result string: inactive

Query string: Please answer likewise for CCOC(=O)C1(CCc2ccccc2)CCN(Cc2ccccn2)CC1
Result string: inactive

Query string: Please answer likewise for COc1ccc(F)cc1C(=O)C1CCCN(Cc2cccn2-c2ccccn2)C1 (configuration not stated)
Result string: inactive

Query string: Please answer likewise for O=C(CN1CCN(Cc2ccccc2Cl)CC1)N=Nc1c(O)[nH]c2ccccc12
Result string: inactive

Query string: Please answer likewise for C=CCOc1ccc(CN(C)Cc2nc3cc(C(F)(F)F)ccc3c(=O)[nH]2)cc1
Result string: inactive

Query string: Please answer likewise for CC(C)c1cccc(OCCCCN(C)C)c1
Result string: inactive

Query string: Please answer likewise for Cc1ccc(C)c(-n2cc(CNCCCn3cccn3)c(-c3ccccc3)n2)c1
Result string: active

Query string: Please answer likewise for COC(=O)c1ccc(/C=N/N2CCN(Cc3ccc(C)cc3C)CC2)cc1
Result string: inactive

Query string: Please answer likewise for Cc1cc(C)c2nc(C)cc(N/N=C/c3ccc(O)cc3)c2c1
Result string: inactive
